tested on: MOLT-4; assay: cells; conditions: Homo sapiens, MOLT-4, 72 h
Description: Antiproliferative activity against human MOLT4 cells after 72 hrs by MTT assay
measuredProperty: EC50 (µM)

1 = CN(C)c1ncnc2c1ncn2[C@@H]1O[C@H](CO)[C@@H](NC(=O)[C@@H](N)Cc2ccccc2)[C@H]1O
2 = COc1ccc(C[C@H](N)C(=O)N[C@H]2[C@@H](O)[C@H](n3cnc4c(N(C)C)ncnc43)O[C@@H]2CO)cc1
3 = CC(C)C[C@@H](C(=O)N[C@H](C(=O)OC1CCCC1)c1ccccc1)[C@H](O)C(=O)NO
[in] Sort by EC50, descending. To answer, write out the labels according to the requested order.
[out] 3, 1, 2
(3: 2.1 µM, 1: 0.39 µM, 2: 0.17 µM)
